# Tested on: CAL-120
# Run description: normalised viability (% of control), CellTiter-Blue; higher = more viable cells (about 100 = DMSO control)
# Applied conditions: 10000 nM; incubation time: 72 h
# Lookup of reported normalised viability keyed by entry
Returns: string containing the number followed by the unit.

Compound: O=C(c1cc(Cc2n[nH]c(=O)c3ccccc23)ccc1F)N1CCN(C(=O)C2CC2)CC1
normalised viability: 68.6%
--
Compound: C[C@@H](C(=O)O)c1ccc(-c2ccccc2)c(F)c1
normalised viability: 99.4%
--
Compound: CCN(CC)CCOc1ccc(C(=C(Cl)c2ccccc2)c2ccccc2)cc1
normalised viability: 18%
--
Compound: C[C@@H]1C[C@H]2[C@@H]3CCC4=CC(=O)C=C[C@]4(C)[C@@]3(F)[C@@H](O)C[C@]2(C)[C@@]1(O)C(=O)CO
normalised viability: 80.1%
--
Compound: Cn1nnc2c(C(N)=O)ncn2c1=O [Temozolomide]
normalised viability: 100%
--
Compound: C[C@]12C=CC(=O)C=C1CC[C@@H]1[C@@H]2C(=O)C[C@@]2(C)[C@H]1CC[C@]2(O)C(=O)CO
normalised viability: 96.3%

Give normalised viability only, for CN1CCN(c2nc(C3=C(c4c[nH]c5ccccc45)C(=O)NC3=O)c3ccccc3n2)CC1 , using CAL-120 data.
110%

Give normalised viability only, for Nc1nc(Cl)nc2c1ncn2[C@@H]1O[C@H](CO)[C@@H](O)[C@@H]1F , using CAL-120 data.
50.4%

---

# Tested on: MDA-MB-231
# Run description: normalised response (% of control), CellTiter-Glo; higher = more viable cells (100 = DMSO, 0 = benzethonium chloride kill control)
# Applied conditions: incubation time: 72 h
# Lookup of reported normalised response keyed by entry
Respond numerically; units are % and should not be typed.

Read the entry CCCc1cc(C)[nH]c(=O)c1CNC(=O)c1cc(-c2ccnc(N3CCN(C)CC3)c2)cc2c1cnn2C(C)C [GSK343] (10000 nM) and write its reported normalised response.
7.92

Read the entry COc1cc(Nc2ncc(F)c(Nc3ccc4c(n3)N(COP(=O)(O)O)C(=O)C(C)(C)O4)n2)cc(OC)c1OC [Fostamatinib] (2500 nM) and write its reported normalised response.
20.3

Read the entry CC(C)(C)Cn1c(N)nc2ccc(-c3[nH]c(C(C)(C)C)nc3-c3ccc(F)cc3)nc21 (10000 nM) and write its reported normalised response.
67.2

Read the entry CN1CCN(c2nc(C3=C(c4c[nH]c5ccccc45)C(=O)NC3=O)c3ccccc3n2)CC1 [Sotrastaurin] (10000 nM) and write its reported normalised response.
107

---

# System: MDA-MB-436
# Run description: normalised response (% of control), CellTiter-Glo; higher = more viable cells (100 = DMSO, 0 = benzethonium chloride kill control)
# Applied conditions: incubation time: 72 h
Quantity kind: normalised response (%)
Respond numerically; units are % and should not be typed.

For orientation, consider the following solved cases.
Molecule: O=C(c1cc(Cc2n[nH]c(=O)c3ccccc23)ccc1F)N1CCN(C(=O)C2CC2)CC1 [Olaparib] (10000 nM)
System tested: MDA-MB-436
normalised response (%): 62.2

Molecule: NC(=O)NO [Hydroxyurea] (100000 nM)
System tested: MDA-MB-436
normalised response (%): 103

Read the entry Cn1nnc2c(C(N)=O)ncn2c1=O [Temozolomide] (10000 nM) and write its reported normalised response.
98

---

# System: BT-549
# Run description: normalised viability (% of control), CellTiter-Blue; higher = more viable cells (about 100 = DMSO control)
# Applied conditions: 1000 nM; incubation time: 72 h
Quantity kind: normalised viability (%)
Respond numerically; units are % and should not be typed.

For orientation, consider the following solved cases.
Structure: C[C@@H]1C[C@H]2[C@@H]3CCC4=CC(=O)C=C[C@]4(C)[C@@]3(F)[C@@H](O)C[C@]2(C)[C@@]1(O)C(=O)CO
normalised viability [%]: 90.3
//
Structure: C[C@]12C=CC(=O)C=C1CC[C@@H]1[C@@H]2C(=O)C[C@@]2(C)[C@H]1CC[C@]2(O)C(=O)CO
normalised viability [%]: 107
//
Structure: CC/C(=C(\c1ccccc1)c1ccc(OCCN(C)C)cc1)c1ccccc1
normalised viability [%]: 82.8

Shifting focus to the compound that follows.
Read the entry NC(=O)c1cccc2cn(-c3ccc([C@@H]4CCCNC4)cc3)nc12 and write its reported normalised viability.
93.3

---

# Tested on: CAL-148
# Run description: normalised response (% of control), CellTiter-Glo; higher = more viable cells (100 = DMSO, 0 = benzethonium chloride kill control)
# Applied conditions: incubation time: 72 h
# Lookup of reported normalised response keyed by entry

For orientation, consider the following solved cases.
Molecule: NC1(c2ccc(-c3nc4ccn5c(=O)[nH]nc5c4cc3-c3ccccc3)cc2)CCC1 [MK-2206] (1000 nM)
Quantity kind: normalised response
Result: 59.7%
--
Molecule: COc1cc2c(Oc3ccc(NC(=O)C4(C(=O)Nc5ccc(F)cc5)CC4)cc3F)ccnc2cc1OCCCN1CCOCC1 [Foretinib] (1000 nM)
Quantity kind: normalised response
Result: 48.9%
--
Molecule: CCc1cnn2c(NCc3ccc[n+]([O-])c3)cc(N3CCCC[C@H]3CCO)nc12 [Dinaciclib] (1000 nM)
Quantity kind: normalised response
Result: 67.5%

Read the entry O=C(c1cc(Cc2n[nH]c(=O)c3ccccc23)ccc1F)N1CCN(C(=O)C2CC2)CC1 [Olaparib] (10000 nM) and write its reported normalised response.
64.6%

---

# System: Hs578T
# Run description: normalised viability (% of control), CellTiter-Blue; higher = more viable cells (100 = DMSO, 0 = benzethonium chloride kill control)
# Applied conditions: incubation time: 72 h
Quantity kind: normalised viability (%)
Respond numerically; units are % and should not be typed.

For orientation, consider the following solved cases.
Compound: O=C(O)CC[C@H]1CC[C@@](c2cc(F)ccc2F)(S(=O)(=O)c2ccc(Cl)cc2)CC1 [MK-0752] (0.1 nM)
Units of measure: %
normalised viability: 106
--
Compound: Cc1cc2c(F)c(Oc3ncnn4cc(OC[C@@H](C)O)c(C)c34)ccc2[nH]1 [Brivanib] (0.1 nM)
Units of measure: %
normalised viability: 112
--
Compound: O=NN(CCCl)C(=O)NC1CCCCC1 [Lomustine] (1 nM)
Units of measure: %
normalised viability: 100
--
Compound: Cc1c(N)nc([C@H](CC(N)=O)NC[C@H](N)C(N)=O)nc1C(=O)N[C@H](C(=O)N[C@H](C)[C@@H](O)[C@H](C)C(=O)N[C@H](C(=O)NCCc1nc(-c2nc(C(=O)NCCC[S+](C)C)cs2)cs1)[C@@H](C)O)[C@@H](OC1OC(CO)C(O)C(O)C1OC1OC(CO)C(O)C(OC(N)=O)C1O)c1cnc[nH]1 (stereo partly drawn) [Bleomycin] (1 nM)
Units of measure: %
normalised viability: 98.8

Read the entry CN1CCN(c2nc(C3=C(c4c[nH]c5ccccc45)C(=O)NC3=O)c3ccccc3n2)CC1 [Sotrastaurin] (1 nM) and write its reported normalised viability.
101

Read the entry NC1(c2ccc(-c3nc4ccn5c(=O)[nH]nc5c4cc3-c3ccccc3)cc2)CCC1 [MK-2206] (0.1 nM) and write its reported normalised viability.
107

Read the entry Cn1nnc2c(C(N)=O)ncn2c1=O [Temozolomide] (1 nM) and write its reported normalised viability.
102

Read the entry CC(C)C(=O)Nc1ccc([N+](=O)[O-])c(C(F)(F)F)c1 [Flutamide] (1 nM) and write its reported normalised viability.
134

---

# System: MCF-10A
# Run description: normalised response (% of control), CellTiter-Glo; higher = more viable cells (100 = DMSO, 0 = benzethonium chloride kill control)
# Applied conditions: incubation time: 72 h
Quantity kind: normalised response

Compound: CO[C@H]1C[C@@H]2CC[C@@H](C)[C@@](O)(O2)C(=O)C(=O)N2CCCC[C@H]2C(=O)O[C@H]([C@H](C)C[C@@H]2CC[C@@H](O)[C@H](OC)C2)CC(=O)[C@H](C)/C=C(\C)[C@@H](O)[C@@H](OC)C(=O)[C@H](C)C[C@H](C)/C=C/C=C/C=C/1C [Sirolimus] (10 nM)
normalised response: 102%

Read the entry Cc1c(N)nc([C@H](CC(N)=O)NC[C@H](N)C(N)=O)nc1C(=O)N[C@H](C(=O)N[C@H](C)[C@@H](O)[C@H](C)C(=O)N[C@H](C(=O)NCCc1nc(-c2nc(C(=O)NCCC[S+](C)C)cs2)cs1)[C@@H](C)O)[C@@H](OC1OC(CO)C(O)C(O)C1OC1OC(CO)C(O)C(OC(N)=O)C1O)c1cnc[nH]1 (some centres not stated) [Bleomycin] (1 nM) and write its reported normalised response.
93.2%

---

# Lookup of reported drug sensitivity score keyed by entry
# Tested on: HCC1599
# Run description: drug sensitivity score (DSS), CellTiter-Glo (DSS (AUC-based score)); higher = stronger drug effect (viability inhibition or cytotoxicity); extreme values may be limits of the assay
# Applied conditions: incubation time: 72 h
Give your answer as a number; write no unit.

For orientation, consider the following solved cases.
Molecule: O=C(O)CC[C@H]1CC[C@@](c2cc(F)ccc2F)(S(=O)(=O)c2ccc(Cl)cc2)CC1
Numeric result: 0
//
Molecule: COc1cc(Nc2ncc(F)c(Nc3ccc4c(n3)N(COP(=O)(O)O)C(=O)C(C)(C)O4)n2)cc(OC)c1OC
Numeric result: 0
//
Molecule: Cn1nnc2c(C(N)=O)ncn2c1=O [Temozolomide]
Numeric result: 0

Read the entry CC(C)C[C@H](NC(=O)[C@H](CCc1ccccc1)NC(=O)CN1CCOCC1)C(=O)N[C@@H](Cc1ccccc1)C(=O)N[C@@H](CC(C)C)C(=O)[C@@]1(C)CO1 and write its reported drug sensitivity score.
10.9

src = the supplement of paper PMC4862054
